Assay: antimalarial activity against Dd2 strain (AID 2302);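 also: 0% = DMSO untreated growth and 100% = chloroquine plus artemisinin killed control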
Conditions: P. falciparum Dd2 in RBCs, LDH growth readout, 72 h; at 2 µM; hits give high values
quantity-kind: growth inhibition (%)

                                    compound      quantity_kind  value
 0  Cc1cc(C(=O)CN2C(=O)NC3(CCOc4ccccc43)C2=O)c(C)n1Cc1ccc(F)cc1 (stereo not drawn)  growth inhibition     84
 1  Cc1cccc(NC(=O)N(Cc2cc3cc(C)cc(C)c3[nH]c2=O)C2CC2)c1  growth inhibition     94
 2  O[C@@H](c1ccccc1)[C@@H]1CN(CCC2C[C@@H]3CC[C@H]2C3)CC[C@@]1(O)c1ccccc1 (stereo partly drawn)  growth inhibition     99
 3  CC1(C)N=C(N)N=C(N)N1OCCCc1cc(Cl)c(Cl)cc1Cl  growth inhibition     96
 4  N#Cc1ccc(-c2ccc(C(=O)NCC3CCN(CCN4CCC(c5ccc6c(c5OCC(N)=O)CCCC6)CC4)CC3)cc2)cc1  growth inhibition     99
 5  COc1cc(NC(=O)N2CCOC(CCN3CCC(c4ccccc4)CC3)(c3ccc(Cl)c(Cl)c3)C2)cc(OC)c1 (stereo not drawn)  growth inhibition     73
 6  O=C(Nc1ccc2c(c1)CCC2)c1cnc(N2CCN(c3ccncc3)CC2)c(Cl)c1  growth inhibition     48
 7  CC(Cc1ccc(NC(=O)COc2ccc(CC(C)NCCc3cccc(Cl)c3)cc2)cc1)NCCc1cccc(Cl)c1 (stereo not drawn)  growth inhibition     98
 8  CC(Cc1ccc(C(=O)N2CCN(C(=O)c3ccc(CC(C)NCCc4cccc(Cl)c4)cc3)CC2)cc1)NCCc1cccc(Cl)c1 (stereo not drawn)  growth inhibition     85
 9  CC(C)(C)N1CCC(N(Cc2ccc(-c3ccc(C(F)(F)F)cc3)cc2)C(=O)Cn2c(CCc3cccc(F)c3F)cc(=O)c3cccnc32)CC1  growth inhibition     63
10  C[C@@H]1CCC[C@H](C)N1C[C@@H](O)CNS(=O)(=O)c1cccc(C(F)(F)F)c1  growth inhibition      2
11  N#Cc1cccc(COC(=O)C2=C(COc3ccccc3Cl)NC(=O)NC2c2c[nH]c3cnccc23)c1 (stereo not drawn)  growth inhibition     -3
12  Cc1cccc(-c2ccc(NC(=O)C3CCN(Cc4cccc(O)c4)CC3)cc2)c1  growth inhibition     64
13  CNCc1ccc2nc(-c3coc(Cc4cc(Cl)ccc4OCC(C)C)n3)[nH]c2c1  growth inhibition     95
14  COc1ccc(CN(C)CCOc2ccc(NC(=O)c3cccc4c(=O)c5cc(SC)ccc5[nH]c34)cc2)cc1OC  growth inhibition     98
15  Cc1c(Cn2nc(Cl)c(N3CCNCC3)cc2=O)cccc1NC(=O)Nc1ccc(-c2ccccc2)cc1  growth inhibition     29
16  Cc1cc(NC(=O)c2cccs2)ccc1OC1CCN(Cc2ccc(F)cc2)CC1  growth inhibition     92
17  CN1CCC(NCc2cccc(-c3ccc(S(=O)(=O)NCc4ccccc4)c(F)c3)c2)CC1  growth inhibition     99
